test system: PC12 cells; experiment: KCN-induced necrosis of PC12 cells, LDH release; type: cell-based, rat; settings: Rattus norvegicus, PC-12, 5 h, 0.1 μM; KCN, PC12, LDH release (Table 5); read-out: % protection at 0.1 μM
experimental_endpoint: inhibition at 0.1 µM (%)

>  <compound>
CN(C)c1ccc(Nc2nc(-c3ccc(Cl)cc3)cs2)cc1 [4112-3656]

>  <quantitative_result>
73

$$$$
>  <compound>
CCOC(=O)CN1C(=O)c2ccccc2S1(=O)=O [5149-0030]

>  <quantitative_result>
68

$$$$
>  <compound>
O=C(N1CCN(c2nnc3ccc(Cl)cn23)CC1)C1(c2ccccc2)CC1 [T404-2346]

>  <quantitative_result>
42

$$$$
>  <compound>
O=C(O)c1nc2ncccn2n1 [R052-2664]

>  <quantitative_result>
49

$$$$
>  <compound>
CC(C)c1cc(C2CCCN2C(=O)C2CC2)no1 (stereo not drawn) [Z632-2266]

>  <quantitative_result>
78

$$$$
>  <compound>
CCC(=O)N1CCN=C1N1CCN(C)CC1 [M059-0891]

>  <quantitative_result>
84

$$$$
>  <compound>
O=C(c1ccco1)N1CCN=C1N1CCCC1 [M059-0032]

>  <quantitative_result>
59

$$$$
>  <compound>
O=C(c1csc(N2CCCCC2)n1)N1CCCC1 [Z601-4253]

>  <quantitative_result>
74

$$$$
>  <compound>
Cn1c(=O)[nH]c(=O)c2[nH]c(N3CCCCC3)nc21 [D226-0031]

>  <quantitative_result>
37

$$$$
>  <compound>
O=C(NCCNC(=O)c1nc(Cn2cc(Cl)cn2)no1)c1cccc(F)c1 [8019-5381]

>  <quantitative_result>
49

$$$$
>  <compound>
Cc1[nH]c(=O)[nH]c(=O)c1S(=O)(=O)N1CCCCC1C (stereo not drawn) [E214-0380]

>  <quantitative_result>
51

$$$$
>  <compound>
O=S1(=O)N=C(NCCN2CCCC2)C(NCCN2CCCC2)=N1 [Z087-0195]

>  <quantitative_result>
80

$$$$
>  <compound>
CC1Cc2ccccc2N1S(=O)(=O)c1ccc(C(=O)O)cc1 (stereo not drawn) [D216-0746]

>  <quantitative_result>
84

$$$$
>  <compound>
O=c1oc(-c2ccco2)nc2sc3c(c12)CCCC3 [4789-3852]

>  <quantitative_result>
61

$$$$
>  <compound>
COc1cc(OC)cc(-c2nc3ccc(Br)cc3c(=O)o2)c1 [3952-1000]

>  <quantitative_result>
35

$$$$
>  <compound>
CC(=O)Nc1nc(SCCC(=O)O)n[nH]1 [L150-1122]

>  <quantitative_result>
44

$$$$
>  <compound>
O=C(CN1C(=O)C2CCCN2C(=O)c2ccc(F)cc21)Nc1ccc(F)c(F)c1 (stereo not drawn) [M284-0942]

>  <quantitative_result>
52

$$$$
>  <compound>
CCn1c2ccccc2c2nnc(NCc3ccccn3)nc21 [E205-0066]

>  <quantitative_result>
32

$$$$
>  <compound>
CC(=O)Oc1ccc2nc(-c3cccc(Br)c3)oc(=O)c2c1 [4334-1600]

>  <quantitative_result>
71

$$$$
>  <compound>
CC(C)N1CCN(C(=O)CN2C(=O)C3CCCN3C(=O)c3cc(F)ccc32)CC1 (stereo not drawn) [M284-0488]

>  <quantitative_result>
72

$$$$
>  <compound>
CCN1CCN(c2c(C)c(C)nc3ncnn23)CC1 [Z606-8336]

>  <quantitative_result>
64

$$$$

Values were extracted from patent US11945787B2.
